Assay: Metabolic stability in human hepatic microsome
Type: in vitro ADME
Settings: microsomes, pH 7.4; human hepatic microsome, NADPH(+); read-out: CL NADPH(+)
Starred links: 1 amine or outer side, 2 acyl side, 3 side chain; linkers in the order of their positions; H or OH if unused. Positions of bridges follow the written chain, without caps; N, C: chain ends. Non-standard residues stand in square brackets, D forms with d. Residues, ends and D or L forms follow the SMILES beside them. *: point of attachment. NMeF = CN[C@@H](Cc1ccccc1)C(=O)O; NMeGABA = CN(CCCC(=O)[*:2])[*:1]; NMeL = CN[C@@H](CC(C)C)C(=O)O; NMeV = CN[C@H](C(=O)O)C(C)C; NMeS = CN[C@@H](CO)C(=O)O; NMeA = CN[C@@H](C)C(=O)O; Piperidide = C1CCN(*)CC1; dNMeA = CN[C@H](C)C(=O)O; β3hA = C[C@H](N)CC(=O)O; Sar = CNCC(=O)O; tBu = CC(C)(C)*
Threshold check on microsomal CLint at 1 uM: at or above 50 µL/min/mg gives True, strictly below gives False.

Lookup: Would you say CC(C)C[C@@H]1NC(=O)[C@H]([C@@H](C)O)NC(=O)[C@H](CC(C)C)N(C)C(=O)CN(C)C(=O)[C@H](Cc2ccccc2)N(C)C(=O)[C@H](C(C)C)NC(=O)C[C@@H](C(=O)N2CCCCC2)NC1=O [DP-720] (V[NMeF][Sar][NMeL]TLD-Piperidide; lactam N-7) shows microsomal CLint at 1 uM at minimum 50 µL/min/mg?
Found: True

Lookup: Determine whether measured microsomal CLint at 1 uM meets or exceeds 50 µL/min/mg for CC(C)C[C@@H]1NC(=O)CCCN(C)C(=O)C[C@@H](C(=O)N2CCCCC2)NC(=O)[C@H](Cc2ccccc2)N(C)C(=O)[C@H]([C@@H](C)O)NC(=O)[C@H](CC(C)C)N(C)C(=O)[C@H](COC(C)(C)C)NC1=O [DP-716] ([NMeGABA]LS(tBu)[NMeL]T[NMeF]D-Piperidide; lactam N-7)
Found: True

Lookup: Decide: microsomal CLint at 1 uM of CC[C@H](C)[C@@H]1NC(=O)[C@H](CC(C)C)N(C)C(=O)[C@H](Cc2ccccc2)N(C)C(=O)[C@H](CC(C)C)NC(=O)[C@@H](C)NC(=O)C[C@@H](C(=O)N2CCCCC2)NC(=O)[C@H](C)N(C)C(=O)[C@H](C)N(C)C(=O)CN(C)C(=O)[C@H]([C@@H](C)O)NC(=O)[C@H](Cc2ccccc2)N(C)C(=O)[C@H](C(C)C)N(C)C1=O [DP-131] ([dA]L[NMeF][NMeL]I[NMeV][NMeF]T[Sar][NMeA][NMeA]D-Piperidide; lactam N-12) >= 50 µL/min/mg?
Found: False

Lookup: Is it the case that CC(C)C[C@@H]1NC(=O)[C@H](CC(C)C)N(C)C(=O)[C@H](C)NC(=O)[C@H](C(C)C)N(C)C(=O)[C@H](C)N(C)C(=O)CN(C)C(=O)[C@H]([C@@H](C)O)NC(=O)[C@H](Cc2ccccc2)NC(=O)[C@H](CC(C)C)N(C)C(=O)[C@@H](C)N(C)C(=O)C[C@@H](C(=O)N2CCCCC2)NC1=O [DP-243] ([dNMeA][NMeL]FT[Sar][NMeA][NMeV]A[NMeL]LD-Piperidide; lactam N-11) has microsomal CLint at 1 uM reaching or exceeding 50 µL/min/mg?
Found: False

Lookup: // inclusive: microsomal CLint at 1 uM at least 50 µL/min/mg? input: CC(C)C[C@H]1C(=O)N[C@@H](COC(C)(C)C)C(=O)N[C@H](C(=O)N2CCCCC2)CC(=O)N[C@@H](C)C(=O)N(C)[C@@H](Cc2ccccc2)C(=O)N(C)CC(=O)N(C)[C@@H](Cc2ccccc2)C(=O)N[C@@H]([C@@H](C)O)C(=O)N1C [DP-711] (A[NMeF][Sar][NMeF]T[NMeL]S(tBu)D-Piperidide; lactam N-8)
Found: True

Lookup: Threshold query (microsomal CLint at 1 uM >= 50 µL/min/mg) on CC(C)C[C@@H]1NC(=O)[C@H](CO)N(C)C(=O)[C@H](CC(C)C)N(C)C(=O)[C@H](CC(C)C)N(C)C(=O)[C@H](CC(C)C)N(C)C(=O)[C@@H](C)NC(=O)[C@H](C)NC(=O)[C@H](CC(C)C)N(C)C(=O)C[C@H](C)NC(=O)[C@H](CC(C)C)N(C)C(=O)CN(C)C1=O [DP-649] (cyclo(A[dA][NMeL][NMeL][NMeL][NMeS]L[Sar][NMeL][β3hA][NMeL]))
Found: False
